# PROTOCOL DETAILS: protein stability index of a GFP-peptide fusion (yeast GPS) (PSI 1-4); higher = more stable; sorted into four equal gates, so the index is relative within each strain
# MEASUREMENT CONTEXT: ubr1∆
Item-by-item account of protein stability index

SEQUENCE INPUT	protein stability index
SIMAVTFKDGVILGADS [PRE3]	2.59
KESAVISKQKSKLDYIF [SMC1]	2.98
PKHSYLSGNPLTSVTND [SIR4]	2.97
VLVSMGSSNKAVVQTVK [YJL039C/NUP192]	1.34
DGLLEYLEDIIGTANYK [SMC4]	2.36
FVAKLAAQIFGSYNAFE [COR1]	2.13
FDRLNGNDTISKFYNMK [SSN2]	3.08

The reported measurements were obtained from the supplement of paper PMC9732359.
